molecular target: Short transient receptor potential channel 4 (Mus musculus); test: calcium flux activators in TRPC4/5HT1a cells, counter-screen for TRPC4 activator project, cell-based, second counter screen, HEK293 TRPC4/5HT1a, Fluo-4 (AID 434977); settings: Fluo-4 calcium flux, at 10 µM
The source made the active and inactive calls.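 Rule for the calls: active = calcium signal rise above buffer-control mean plus 5 SD in both duplicates, and also a hit in the primary screen; inactive = the rest.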
Log the outcome using a class from TRUE = active, FALSE = inactive

Prompt line: For `COc1ccc2nc(SCCN(C)C)[nH]c2c1` , which call appears in the assay record?
Response line: TRUE

Prompt line: For `O=C(NC1CC1)c1ccc2c(c1)N(Cc1ccc(Cl)cc1)CCS2` , which call appears in the assay record?
Response line: FALSE

Prompt line: For Cc1cccc(N(Cc2ccccc2)C(=O)CSC(C)C(=O)Nc2cc(C)on2)c1 (centres undefined) , which call appears in the assay record?
Response line: FALSE

Prompt line: For `NS(=O)(=O)c1ccc(CCNCc2ccccc2OCc2ccc(Cl)cc2)cc1` , which call appears in the assay record?
Response line: FALSE

Prompt line: For `Cc1ccc(-c2cn(-c3ccccc3)c(SCC(N)=O)n2)cc1C` , which call appears in the assay record?
Response line: FALSE

Prompt line: For `CCN1CCN(c2ccc(NC(=O)CCc3c(C)nc4c(-c5ccc(F)cc5)c(C)nn4c3C)cc2)CC1` , which call appears in the assay record?
Response line: FALSE

Prompt line: For CCOC(=O)c1c(NC(=O)C2CCCCC2C(=O)O)sc2c1CCCCC2 (centres undefined) , which call appears in the assay record?
Response line: FALSE

Prompt line: For O=[N+]([O-])c1ccc2c(c1)C=C1CCCCC1(N1CCCC1)O2 (centres undefined) , which call appears in the assay record?
Response line: FALSE

Prompt line: For `CC(C)n1cnc2c(N(C)c3ccccc3)nc(N(CCN(C)C)Cc3ccccc3)nc21` , which call appears in the assay record?
Response line: FALSE

Prompt line: For CC(COc1ccccc1)N1CCC(CO)(Cc2ccccc2)CC1 (centres undefined) , which call appears in the assay record?
Response line: FALSE

Prompt line: For COc1ccccc1N(C(=O)c1snc(C(N)=O)c1N)C(C(=O)NC1CCCC1)c1ccc2ncccc2c1 (centres undefined) , which call appears in the assay record?
Response line: FALSE

Prompt line: For `Cc1cc(-c2ccc(C)c(S(=O)(=O)N3CCN(C(=O)c4ccco4)CC3)c2)on1` , which call appears in the assay record?
Response line: FALSE

Prompt line: For Cc1ccccc1N1CC(O)(c2cccs2)[N+]2=C1CCCC2 (centres undefined) , which call appears in the assay record?
Response line: FALSE

Prompt line: For `COC1=C(C)C(O)=C(C(=O)/C=C/c2ccccc2)C(=O)C1(C)C` , which call appears in the assay record?
Response line: FALSE

----------
molecular target: Short transient receptor potential channel 4 (Mus musculus) (UniProt Q9QUQ5); assay: blockers of DAMGO-evoked TRPC4 calcium flux – cell-based, Fluo4, HEK293 TRPC4beta/mu-opioid, confirmation (AID 2636); conditions: at 10 µM; hits give high values
Sequence (Q9QUQ5 whole entry, looked up): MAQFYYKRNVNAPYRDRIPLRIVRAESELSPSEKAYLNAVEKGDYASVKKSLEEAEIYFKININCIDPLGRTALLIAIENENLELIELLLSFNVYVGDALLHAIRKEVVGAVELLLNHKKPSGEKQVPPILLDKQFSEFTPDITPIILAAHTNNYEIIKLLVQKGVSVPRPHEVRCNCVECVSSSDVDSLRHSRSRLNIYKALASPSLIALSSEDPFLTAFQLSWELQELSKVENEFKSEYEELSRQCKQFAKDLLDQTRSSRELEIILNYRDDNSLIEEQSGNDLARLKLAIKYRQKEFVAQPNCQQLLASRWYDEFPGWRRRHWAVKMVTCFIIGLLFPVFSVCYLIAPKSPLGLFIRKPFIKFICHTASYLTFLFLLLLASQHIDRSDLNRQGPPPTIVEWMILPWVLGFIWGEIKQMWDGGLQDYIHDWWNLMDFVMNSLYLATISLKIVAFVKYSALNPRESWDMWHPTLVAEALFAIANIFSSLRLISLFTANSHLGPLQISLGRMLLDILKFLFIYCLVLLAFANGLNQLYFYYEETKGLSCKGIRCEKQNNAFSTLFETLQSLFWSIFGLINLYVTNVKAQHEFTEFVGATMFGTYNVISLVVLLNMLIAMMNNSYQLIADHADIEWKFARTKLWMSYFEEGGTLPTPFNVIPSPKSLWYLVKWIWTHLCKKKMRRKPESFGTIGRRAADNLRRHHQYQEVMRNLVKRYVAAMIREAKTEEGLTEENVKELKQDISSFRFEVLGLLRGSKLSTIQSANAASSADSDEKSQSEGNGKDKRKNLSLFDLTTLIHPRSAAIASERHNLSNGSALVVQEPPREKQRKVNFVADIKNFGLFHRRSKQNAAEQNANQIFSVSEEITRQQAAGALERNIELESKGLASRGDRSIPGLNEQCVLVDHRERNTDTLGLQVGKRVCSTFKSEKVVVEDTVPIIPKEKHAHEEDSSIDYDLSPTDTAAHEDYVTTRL
The source made the active and inactive calls.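 The calls were made as follows: active = calcium signal cut by more than 3 SD below the full-agonist control yet still positive, in both repeats and the earlier primary screen; inactive = the rest.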
Would you mind telling me the reported inhibition of each entry?

Prompt line: Data request, read-out inhibition, for COc1ccccc1C1/C(=C(\O)c2ccc3c(c2)OCCO3)C(=O)C(=O)N1Cc1cccnc1 (centres undefined)
Response line: 82% (active)

Prompt line: Data request, read-out inhibition, for `Cc1cccc2cc(CN(Cc3nnnn3Cc3ccccc3)C3CCCC3)c(=O)[nH]c12`
Response line: 91% (active)

Prompt line: Data request, read-out inhibition, for Cc1ccccc1C(=O)NC1CC2CCC(C1)N2Cc1ccccc1 (centres undefined)
Response line: 68% (active)

----------
tested on: TRPC4 (mouse), co-expressed with 5HT1a in HEK293; experiment: enhancement of serotonin-evoked TRPC4 response – cell-based, second counter screen, HEK293 TRPC4/5HT1a, Fluo-4, counter-screen for TRPC4 potentiator project, confirmation (AID 434979); conditions: Fluo-4 calcium flux, at 10 µM, serotonin added at its EC20 dose; hits give high values
Active and inactive are the calls of the source.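 The calls were made as follows: active = signal rise over 3 SD above mean of control wells given weak agonist, in both repeats and first screen; inactive = the rest.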
measuredParameter: potentiation

# annotated cases, reported potentiation shown
Cc1cc(OCc2cc(C(=O)NCC3(C)COC3)no2)cc(C)c1Cl :: inactive
Cc1cc(Nc2ccccc2O)c2ccccc2n1 :: inactive
CC(C)C1=Nc2cccc3cccc(c23)N1 :: inactive
O=C(O)C1C2C=CC(C2)C1C(=O)N1CCN(C/C=C/c2ccccc2)CC1 (configuration not stated) :: inactive

Prompt line: Data request, read-out potentiation, for O=C(CC1C(=O)NCCN1C(=O)Nc1ccccc1)Nc1cc(Cl)cc(Cl)c1 (configuration not stated)
Response line: 21.1% (active)

Prompt line: Data request, read-out potentiation, for `CCOC(=O)c1cnc2ccc(Cl)cc2c1NCCN(C)C`
Response line: inactive

Prompt line: Data request, read-out potentiation, for `Cc1cc(Br)cc(C)c1OCCCCN(C)C`
Response line: 23.5% (active)

Prompt line: Data request, read-out potentiation, for CCOC(=O)C1=C(C)NC(=O)CC1c1cc2c(cc1[N+](=O)[O-])OCO2 (configuration not stated)
Response line: inactive

Prompt line: Data request, read-out potentiation, for `OCC1(Cc2ccccc2)CCN(Cc2ccc(C(F)(F)F)cc2)CC1`
Response line: inactive

Prompt line: Data request, read-out potentiation, for `CNCC(=O)N1CCN(c2ncc(C(F)(F)F)cc2Cl)CC1`
Response line: inactive

Prompt line: Data request, read-out potentiation, for `COc1cc(Cl)c(S(=O)(=O)N2CCN(Cc3ccc4c(c3)OCO4)CC2)cc1Cl`
Response line: 16.8% (active)

Prompt line: Data request, read-out potentiation, for `Cc1ccc(NC(=O)CSCC(=O)OCc2cc(=O)oc3cc(O)ccc23)c(C)c1`
Response line: inactive

----------
test: serotonin-gated TRPC4 signal block – cell-based, second counter screen, HEK293 TRPC4/5HT1a, Fluo-4, counter-screen for TRPC4 inhibitor project, confirmation (AID 434978); settings: Fluo-4 calcium flux, at 10 µM, serotonin added to trigger calcium flux; hits give high values
Activity calls are given as the source filed them.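 The calls were made as follows: active = primary screen active whose calcium signal fell more than 3 SD beyond the full-serotonin control mean in both duplicate plates; inactive = the rest.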
measuredParameter: inhibition

# annotated cases, reported inhibition shown
CC1CCCCN1CCCNC(=O)c1nn(C)c2c1CSc1ccccc1-2 (centres undefined) :: inactive
CC(C)Oc1cccc(C(=O)NC(=S)Nc2ccc(N3CCN(C)CC3)cc2)c1 :: inactive
COc1cc(C2c3c(-c4ccccc4)n[nH]c3C(=O)N2c2ccccc2)ccc1O (centres undefined) :: inactive
CCCCCc1c(O)nc(SCCN(C)C)[nH]c1=O :: inactive
Cc1ccc(S(=O)(=O)/N=C2/NC(=O)/C(=C\c3cc(Br)cc(Br)c3O)S2)cc1 :: inactive

Prompt line: Data request, read-out inhibition, for `O=c1c(Cc2ccc(F)cc2)c(O)ccn1CCc1cnc[nH]1`
Response line: inactive

Prompt line: Data request, read-out inhibition, for `CCCN1CCN(C(=S)NCc2ccc(Cl)cc2)CC1`
Response line: inactive

Prompt line: Data request, read-out inhibition, for COc1ccccc1Nc1nc(NCC2CCCO2)c2ccccc2n1 (centres undefined)
Response line: 31.5% (active)

Prompt line: Data request, read-out inhibition, for `Nc1c2c(nc3ccccc13)CCC2`
Response line: 29.6% (active)

Prompt line: Data request, read-out inhibition, for `O=S(=O)(c1ccccc1Cl)N1CCC(Cc2ccccc2)CC1`
Response line: inactive

Prompt line: Data request, read-out inhibition, for `C/C(=N\NC(=O)COc1ccc(C)cc1C(C)C)c1ccc(-n2ccnc2)cc1`
Response line: inactive

Prompt line: Data request, read-out inhibition, for `COc1ccc(C(=O)NNC(=S)NC(=O)c2cccs2)cc1`
Response line: inactive

Prompt line: Data request, read-out inhibition, for `COC(=O)c1cccc2c1-c1ccccc1/C2=N/O`
Response line: 27.9% (active)

----------
molecular target: Short transient receptor potential channel 4 (Mus musculus) (UniProt Q9QUQ5); assay: blockers of DAMGO-evoked TRPC4 calcium flux – cell-based, Fluo4, HEK293 TRPC4beta/mu-opioid, confirmation (AID 2636); conditions: at 10 µM; hits give high values
Would you mind telling me the reported inhibition of each entry?
Please state the figure in %; there is no need to write the unit.

Prompt line: Data request, read-out inhibition, for `Clc1cccc(C[n+]2cc(-c3ccccc3)n3c2CCC3)c1`
Response line: 95

Prompt line: Data request, read-out inhibition, for `CCOc1cc(/C=C2\C(=N)N3N=CSC3=NC2=O)ccc1OS(=O)(=O)c1ccccc1`
Response line: 96

Prompt line: Data request, read-out inhibition, for `c1ccc(-c2ccccc2OCCOCCN2CCCCC2)cc1`
Response line: 94

----------
experiment: serotonin-gated TRPC4 signal block – cell-based, second counter screen, HEK293 TRPC4/5HT1a, Fluo-4, counter-screen for TRPC4 inhibitor project, confirmation (AID 434978); settings: Fluo-4 calcium flux, at 10 µM, serotonin added to trigger calcium flux;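 for outcome: serotonin given first at submaximal then at maximal dose after compound preincubation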
Calls of active or inactive are those of the source.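 Rule for the calls: active = primary screen active whose calcium signal fell more than 3 SD beyond the full-serotonin control mean in both duplicate plates; inactive = the rest.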
Log the outcome using a class from active, inactive

Prompt line: For `FC(F)(F)COc1nc(N2CCCCC2)nc(N2CCNCC2)n1` , which call appears in the assay record?
Response line: inactive

Prompt line: For CCOC(=O)c1c(-c2cccc(C)c2)csc1NC(=O)C1CC=CCC1C(=O)O (stereo not given) , which call appears in the assay record?
Response line: active

Prompt line: For COc1ccc(F)cc1C(=O)C1CCCN(Cc2cccn2-c2ccccn2)C1 (stereo not given) , which call appears in the assay record?
Response line: inactive

Prompt line: For N#Cc1c(N2CCCCC2)nc(N)c2c(N)nc3c(c12)CC(c1ccccc1)O3 (stereo not given) , which call appears in the assay record?
Response line: active

Prompt line: For `O=C(CC(=O)c1c(F)cccc1Cl)c1ccccc1O` , which call appears in the assay record?
Response line: inactive

Prompt line: For CCCCc1nc2ccccc2c(N)c1CCC (tested in a mixture with another compound) , which call appears in the assay record?
Response line: active

Prompt line: For `COc1ccc(CNC(=O)CN(C)Cc2ccccc2F)cc1OC` , which call appears in the assay record?
Response line: active

Prompt line: For `COc1cc2nc(=S)n3[nH]c(CCn4nc(C)cc4C)nc3c2cc1OC` , which call appears in the assay record?
Response line: inactive

Prompt line: For CC(C)NS(=O)(=O)c1ccc(NC(=O)C(C)Oc2ccc(C(=O)c3ccccc3)cc2)cc1 (stereo not given) , which call appears in the assay record?
Response line: inactive

Prompt line: For `CC(C)CN(C(=O)COC(=O)COc1ccc2ccccc2c1)c1c(N)n(Cc2ccccc2)c(=O)[nH]c1=O` , which call appears in the assay record?
Response line: inactive

Prompt line: For `CN(CCNS(=O)(=O)c1ccc2c(c1)oc(=O)n2C)Cc1ccccc1` , which call appears in the assay record?
Response line: inactive

Prompt line: For `COc1ccc(O)c(C(=O)c2cnc3c(c2)c(=O)[nH]c(=O)n3C)c1` , which call appears in the assay record?
Response line: active

Prompt line: For CCCC1=C(C(=O)OCC)C(c2cc(Cl)cc(OC)c2OCC(=O)OCC)NC(=O)N1 (stereo not given) , which call appears in the assay record?
Response line: inactive

Prompt line: For `CC1(C)Cc2nc3oc4c(=O)n(CC(=O)Nc5ccccc5)cnc4c3cc2CO1` , which call appears in the assay record?
Response line: inactive

Prompt line: For Cc1ccc2c(c1)C1CN(C)CCC1N2C(=S)NC(=O)c1ccc(Br)cc1 (stereo not given) , which call appears in the assay record?
Response line: inactive

Prompt line: For `CC(=O)OCC[N+](C)(C)C` , which call appears in the assay record?
Response line: inactive

Prompt line: For OC1(c2cccs2)CN(c2ccc(Cl)cc2)C2=[N+]1CCCC2 (stereo not given) , which call appears in the assay record?
Response line: active

Prompt line: For `CCCOc1ccc(Br)cc1/C=N/O` , which call appears in the assay record?
Response line: inactive

Prompt line: For `O=C(c1ccco1)N1CCN(C/C=C/c2ccccc2)CC1` , which call appears in the assay record?
Response line: inactive

Prompt line: For `CCN(CC)c1nc2ccccc2c(N)c1-c1ccccc1` , which call appears in the assay record?
Response line: active

Prompt line: For `CCOCCCNCc1ccc(OCc2ccccc2Cl)cc1` , which call appears in the assay record?
Response line: inactive

Prompt line: For `CC(C)CCn1c(Sc2nc3ccccc3o2)nc2c1c(=O)[nH]c(=O)n2C` , which call appears in the assay record?
Response line: inactive

Prompt line: For `COc1ccc(OC)c(Nc2cc(-c3ccccc3)nc(N)n2)c1` , which call appears in the assay record?
Response line: active

Prompt line: For CC(/C=C1\SC(=S)N(C(C(=O)O)C(C)C)C1=O)=C\c1ccccc1 (stereo not given) , which call appears in the assay record?
Response line: active

Prompt line: For `COc1ccc(CCn2c(N)c(C#N)c3nc4ccccc4nc32)cc1OC` , which call appears in the assay record?
Response line: inactive

Prompt line: For `Cc1cc(OCC(=O)NNC(=S)NC(=O)c2cccs2)ccc1Cl` , which call appears in the assay record?
Response line: inactive

Prompt line: For COc1ccc(C(CNC(=O)C2CC2)N(C)C)cc1 (stereo not given) , which call appears in the assay record?
Response line: inactive

Prompt line: For `Cc1ccc(Oc2ccccc2NC(=O)CSCC(=O)Nc2cc(C)on2)cc1` , which call appears in the assay record?
Response line: active

Prompt line: For Cc1oc(-c2ccccc2Cl)nc1CS(=O)CC(=O)NCCCN1CC(C)CC(C)C1 (stereo not given) , which call appears in the assay record?
Response line: inactive

Prompt line: For `Cc1ccc(NC(=O)Nc2cccc([N+](=O)[O-])c2)nc1` , which call appears in the assay record?
Response line: inactive
